The entries below come with measured RNA-seq results: SCN9A values attached.
# System: hepatocytes
# protocol-description: RNA-seq of hepatocytes treated with Phase III failure compounds
# run-conditions: gene SCN9A; hepatocytes
property-measured: RNA-seq results: SCN9A

smiles-str | measured-result
COc1cc(Nc2ncc(F)c(Nc3ccc4c(n3)N(COP(=O)(O)O)C(=O)C(C)(C)O4)n2)cc(OC)c1OC | −0.97
COc1cc2c(Oc3ccc4[nH]c(C)cc4c3F)ncnc2cc1OCCCN1CCCC1 | −0.39
COc1cc2nccc(Oc3ccc(NC(=O)Nc4cc(C)on4)c(Cl)c3)c2cc1OC | −0.32
Cn1cc(C2=C(c3cn(C4CCN(Cc5ccccn5)CC4)c4ccccc34)C(=O)NC2=O)c2ccccc21 | −1.60
